Settings: human, serum
endpointLabel: Hepatotoxicity (moderate)

> print(dat)
                                   compound              endpointlabel  datavalue
1                                     CNC=O  Hepatotoxicity (moderate)         13
2  C[C@]12CCC(=O)C=C1CC[C@@H]1[C@@H]2CC[C@@]2(C)[C@H]1CC[C@]2(C)O [METHYLTESTOSTERONE]  Hepatotoxicity (moderate)          4
3  CC(CCC(=O)O)C1CC[C@H]2[C@@H]3CC[C@@H]4C[C@H](O)CC[C@]4(C)[C@H]3CC[C@]12C (some centres undefined)  Hepatotoxicity (moderate)          1
4  CC(=O)Nc1ccc(OCC(O)CNC(C)C)cc1 (centres undefined) [PRACTOLOL]  Hepatotoxicity (moderate)          0
5  Cc1ncc(CSSCc2cnc(C)c(O)c2CO)c(CO)c1O [PYRITINOL]  Hepatotoxicity (moderate)          1
6  CCOC(=O)C1=C(C)NC(C)=C(C(=O)OCC)C1c1ccccc1/C=C/C(=O)OC(C)(C)C [LACIDIPINE]  Hepatotoxicity (moderate)          1
7  Cc1ccc(Cl)c(Nc2ccccc2C(=O)O)c1Cl [MECLOFENAMIC ACID]  Hepatotoxicity (moderate)          2
8  O=C(O)Cn1c(=O)n(Cc2ccc(Br)cc2F)c(=O)c2ccc(Cl)cc21 [ZENARESTAT]  Hepatotoxicity (moderate)          1
9  CCC(COC(=O)c1cc(OC)c(OC)c(OC)c1)(c1ccccc1)N(C)C (centres undefined) [TRIMEBUTINE]  Hepatotoxicity (moderate)          0

###

Conditions: human, Liver
Hepatotoxicity (severe hepatitis) values by entry
endpointLabel: Hepatotoxicity (severe hepatitis)

> print(dat)
                                   compound  datavalue
1  Nc1ncn([C@@H]2O[C@H](CO)[C@@H](O)[C@H]2O)c(=O)n1          2
2  Clc1ccc(C(Cn2ccnc2)OCc2ccsc2Cl)c(Cl)c1 (centres undefined)          0
3  CCOC(=O)C1=C(COCCN)NC(C)=C(C(=O)OC)C1c1ccccc1Cl (centres undefined)          0
4  N[C@@H]1C[C@H]1c1ccccc1.N[C@H]1C[C@@H]1c1ccccc1          0
5                              NC(CO)(CO)CO          2
6  COc1ccc2c3c1O[C@H]1[C@@H](O)C=C[C@H]4[C@@H](C2)N(C)CC[C@@]341          0
7                COc1nc(C)nc(Cl)c1N=C1NCCN1          1
8             Nc1ccc(S(=O)(=O)Nc2ncccn2)cc1          1
9  O=C1C(CC[S+]([O-])c2ccccc2)C(=O)N(c2ccccc2)N1c1ccccc1 (centres undefined)          0

###

Settings: human
endpointLabel: Hepatotoxicity (cytolytic)

> print(dat)
                                   compound  datavalue
1  CCc1nn(CCCN2CCN(c3cccc(Cl)c3)CC2)c(=O)n1CCOc1ccccc1         14
2                               ClC=C(Cl)Cl         14
3  O=C1CN2Cc3c(ccc(Cl)c3Cl)N=C2N1 [ANAGRELIDE]          0
4  CC(=O)CCC1C(=O)N(c2ccccc2)N(c2ccccc2)C1=O          3
5  N=C(N)c1ccc(/C=C/c2ccc(C(=N)N)cc2O)cc1 [HYDROXYSTILBAMIDINE]          0
6                  N[C@@H](CSCC(=O)O)C(=O)O          0
7  CC=CC1=C(C(=O)O)N2C(=O)[C@@H](NC(=O)[C@H](N)c3ccc(O)cc3)[C@H]2SC1          0
8  Nc1c2c(nc3ccccc13)CCCC2O (centres undefined)          2
9  CCOC(=O)[C@H](CCc1ccccc1)N[C@@H](C)C(=O)N1[C@H](C(=O)O)C[C@@H]2CCC[C@@H]21          0
